# ASSAY SYSTEM: Voltage-dependent T-type calcium channel subunit alpha-1H (Homo sapiens) (UniProt O95180)
# Sequence (O95180 whole entry): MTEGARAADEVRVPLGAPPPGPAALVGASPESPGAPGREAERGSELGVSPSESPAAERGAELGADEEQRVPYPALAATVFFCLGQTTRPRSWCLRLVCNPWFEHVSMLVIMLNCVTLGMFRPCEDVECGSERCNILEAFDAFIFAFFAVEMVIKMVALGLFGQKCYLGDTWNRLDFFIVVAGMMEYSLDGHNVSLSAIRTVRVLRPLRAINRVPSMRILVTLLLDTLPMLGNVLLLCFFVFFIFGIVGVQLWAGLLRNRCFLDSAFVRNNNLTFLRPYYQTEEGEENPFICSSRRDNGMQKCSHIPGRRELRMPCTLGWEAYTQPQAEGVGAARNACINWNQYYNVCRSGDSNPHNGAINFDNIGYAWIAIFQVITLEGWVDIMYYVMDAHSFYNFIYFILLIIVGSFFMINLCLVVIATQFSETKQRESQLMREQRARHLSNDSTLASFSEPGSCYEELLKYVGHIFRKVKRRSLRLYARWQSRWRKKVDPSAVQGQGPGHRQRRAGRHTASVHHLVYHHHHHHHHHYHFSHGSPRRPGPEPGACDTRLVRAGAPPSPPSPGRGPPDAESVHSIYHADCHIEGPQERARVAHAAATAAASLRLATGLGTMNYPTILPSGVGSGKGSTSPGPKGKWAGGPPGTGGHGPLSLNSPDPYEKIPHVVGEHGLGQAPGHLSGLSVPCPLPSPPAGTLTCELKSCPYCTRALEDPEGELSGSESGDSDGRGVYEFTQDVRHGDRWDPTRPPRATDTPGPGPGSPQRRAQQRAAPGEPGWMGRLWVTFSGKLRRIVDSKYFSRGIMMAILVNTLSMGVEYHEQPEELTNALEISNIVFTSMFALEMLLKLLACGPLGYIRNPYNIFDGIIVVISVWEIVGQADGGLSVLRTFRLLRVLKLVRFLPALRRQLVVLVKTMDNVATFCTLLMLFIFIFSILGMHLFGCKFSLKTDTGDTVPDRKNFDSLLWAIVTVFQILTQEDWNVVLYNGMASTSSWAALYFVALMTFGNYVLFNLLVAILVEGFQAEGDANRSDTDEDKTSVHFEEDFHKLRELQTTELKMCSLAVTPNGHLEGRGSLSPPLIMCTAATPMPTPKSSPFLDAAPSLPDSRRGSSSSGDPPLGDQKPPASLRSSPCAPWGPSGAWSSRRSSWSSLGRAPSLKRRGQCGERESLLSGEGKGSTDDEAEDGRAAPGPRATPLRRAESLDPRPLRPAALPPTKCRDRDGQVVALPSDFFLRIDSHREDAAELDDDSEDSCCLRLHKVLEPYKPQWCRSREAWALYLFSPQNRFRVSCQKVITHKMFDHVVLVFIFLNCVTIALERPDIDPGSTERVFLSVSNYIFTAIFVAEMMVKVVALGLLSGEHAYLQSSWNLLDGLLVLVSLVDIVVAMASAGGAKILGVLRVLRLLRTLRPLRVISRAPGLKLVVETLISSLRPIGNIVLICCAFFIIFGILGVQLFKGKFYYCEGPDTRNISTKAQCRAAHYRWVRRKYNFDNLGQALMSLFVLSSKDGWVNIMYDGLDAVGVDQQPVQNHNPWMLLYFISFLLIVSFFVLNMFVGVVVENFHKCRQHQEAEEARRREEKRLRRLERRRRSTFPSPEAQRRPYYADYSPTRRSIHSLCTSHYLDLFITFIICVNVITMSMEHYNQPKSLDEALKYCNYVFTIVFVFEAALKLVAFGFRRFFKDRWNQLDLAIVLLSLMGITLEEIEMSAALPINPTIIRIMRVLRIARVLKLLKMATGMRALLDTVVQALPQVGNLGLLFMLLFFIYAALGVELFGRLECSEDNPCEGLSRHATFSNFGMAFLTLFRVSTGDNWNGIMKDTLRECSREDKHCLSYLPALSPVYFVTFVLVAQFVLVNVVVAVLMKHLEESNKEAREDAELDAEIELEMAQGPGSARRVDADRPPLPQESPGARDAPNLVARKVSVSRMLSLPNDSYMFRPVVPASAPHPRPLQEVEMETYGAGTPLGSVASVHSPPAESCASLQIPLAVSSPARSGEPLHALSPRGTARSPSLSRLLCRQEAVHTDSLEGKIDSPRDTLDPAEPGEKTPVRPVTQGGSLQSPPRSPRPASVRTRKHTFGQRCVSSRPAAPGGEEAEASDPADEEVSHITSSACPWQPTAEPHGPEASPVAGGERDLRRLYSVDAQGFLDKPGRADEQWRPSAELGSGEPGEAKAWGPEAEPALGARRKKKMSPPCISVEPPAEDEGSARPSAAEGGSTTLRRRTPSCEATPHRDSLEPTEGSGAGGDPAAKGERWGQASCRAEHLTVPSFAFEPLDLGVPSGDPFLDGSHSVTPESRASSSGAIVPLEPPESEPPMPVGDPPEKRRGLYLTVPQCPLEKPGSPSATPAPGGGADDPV
# PROTOCOL DESCRIPTION: Inhibition of alpha-1H T-type calcium channel Cav3.2 expressed in Xenopus unfertilized oocytes at 100 uM by two-electrode voltage clamp method
# Format: cell-based
# CONDITION: Oocyte
Each item that follows carries a reported inhibition.

# example entries with known answers
COMPOUND	EXPERIMENTAL RESULT
CCOC(=O)c1c(NC(=O)c2ccc(S(=O)(=O)N(C)c3ccccc3)cc2)sc2c1CCN(CC)C2	22%
COc1cccc(NC2=C3C(=O)c4ccccc4C4ON=C(C(N5CCN(Cc6cc(Cl)ccc6OC)CC5)=C2)C34)c1 (stereo unspecified)	16.1%
O=C(CN1CCN(C(c2ccccc2)c2ccccc2)CC1)NCc1ccc2c(c1)OCO2	12.5%
O=C(O)c1ccc2c(=O)n(Cc3ccc(CNCCCN4CCN(c5cccc(Cl)c5)CC4)cc3)c(=S)[nH]c2c1	11.4%
O=C1c2ccccc2C(=O)N1CCCN1CCN(Cc2c(F)cccc2Cl)CC1	8.1%
FC(F)(F)c1cccc(N2CCN(Cn3nc(-c4ccccc4)n(-c4ccccc4)c3=S)CC2)c1	11.4%
O=C1CC(N2CCN(C(c3ccc(F)cc3)c3ccc(F)cc3)CC2)C(=O)N1c1ccc(Br)cc1 (stereo unspecified)	37.1%
O=S(=O)(c1cccc2nonc12)N1CCN(C(c2ccccc2)c2ccccc2)CC1	15.2%
Cc1cccc(N2CCN(CC(=O)Nc3ccc(Cl)cc3C(=O)c3ccccc3Br)CC2C)c1 (stereo unspecified)	9.23%
O=C(NCCCN1CCCC1)c1ccc2c(=O)n(Cc3ccc(Cl)cc3)c(=S)[nH]c2c1	84.1%

q: Consider the compound CC1CCN(CCCNC(=O)c2ccc(Cn3c(=S)[nH]c4ccc(Br)cc4c3=O)cc2)CC1 and give its measured inhibition.
a: 62.6%

q: Fill in the blank: the reported inhibition of O=[N+]([O-])c1ccccc1S(=O)(=O)N1CCN(Cc2ccccc2Cl)CC1 is ____.
a: 7.57%

q: I am curious: what inhibition value has been reported for CC1CC(C)CN(CCCNc2ccc(C(=O)Nc3ccc(C(F)(F)F)cc3)cc2[N+](=O)[O-])C1 (stereo unspecified) ?
a: 56%
